protocol: Peak concentration was determined in systemic circulation after intraduodenal dose of 10 mg/kg in rat
Assay type: ADME, organism-based
Set-up: dose 10 mg/kg, route intraduodenal
settings: in vivo, read-out: Activity
recordedEndpoint: Cmax (ng/mL)
I only need the number, in ng/mL, no unit after it.

Recorded results for 2 compounds are shown here.
# mol, recordedEndpoint, recordedMeasurement
data = [
    ("CC(C)C[C@H](O)[C@H](O)[C@H](CC1CCCCC1)NC(=O)[C@H](Cc1cscn1)NC(=O)[C@H](Cc1ccccc1)CS(=O)(=O)N1CCN(C)CC1", "Cmax", 470),
    ("CC(C)C[C@H](O)[C@H](O)[C@H](CC1CCCCC1)NC(=O)[C@H](Cc1cscn1)NC(=O)[C@H](Cc1ccccc1)CS(=O)(=O)C1CN(C)C1", "Cmax", 850),
]

# Cmax of `CC(C)C[C@H](O)[C@H](O)[C@H](CC1CCCCC1)NC(=O)[C@H](Cn1cccn1)NC(=O)[C@@H](CC(=O)N(C)CCc1ccccn1)Cc1ccccc1` = 460

* * *

protocol: Bioavailability was determined after intraduodenal dose of 10 mg/kg in monkey (compared to 0.3 mg/kg intravenous dose)
Format: ADME, organism-based
settings: simiiformes, in vivo, read-out: Bioavailabiility
recordedEndpoint: bioavailability (%)
# number only, unit % dropped from output

Notebook: `CC(C)C[C@H](O)[C@H](O)[C@H](CC1CCCCC1)NC(=O)[C@H](Cc1cscn1)NC(=O)[C@H](Cc1ccccc1)CS(=O)(=O)C1CCN(C)CC1` , bioavailability read as 1.8

* * *

protocol: Bioavailability was determined after intraduodenal dose of 10 mg/kg in monkey (compared to 0.3 mg/kg intravenous dose), determined by renin inhibition assay
Assay type: ADME, organism-based
settings: simiiformes, in vivo, read-out: Bioavailabiility
recordedEndpoint: bioavailability (%)
Lab book: enter the figure in %, no units written.

In plain terms, `CC(C)C[C@H](O)[C@H](O)[C@H](CC1CCCCC1)NC(=O)[C@H](Cc1cscn1)NC(=O)[C@@H](CC(=O)N(C)CCc1ccccn1)Cc1ccccc1` has a documented bioavailability of 3.1

* * *

protocol: Bioavailability was determined after intraduodenal dose of 10 mg/kg in ferret, determined by renin inhibition assay
Format: ADME, organism-based, Mustela putorius furo
settings: in vivo, read-out: Bioavailabiility
recordedEndpoint: bioavailability (%)
Could you give me the number in %? Just the number is fine.

Entry under test: `CC(C)C[C@H](O)[C@H](O)[C@H](CC1CCCCC1)NC(=O)[C@H](Cc1cscn1)NC(=O)[C@@H](CC(=O)N(C)CCc1ccccn1)Cc1ccccc1` . Its bioavailability was 68

* * *

protocol: Bioavailability in rat (dose 10 mg/kg i.d.)
Format: ADME, organism-based
settings: in vivo
recordedEndpoint: bioavailability (%)
Express it in %; write the number only.

# mol, recordedMeasurement
data = [
    ("CC(C)C[C@H](O)[C@H](O)[C@H](CC1CCCCC1)NC(=O)[C@H](Cc1cscn1)NC(=O)[C@H](Cc1ccccc1)CS(=O)(=O)C1CN(C)C1", 80),
]

So for `CC(C)C[C@H](O)[C@H](O)[C@H](CC1CCCCC1)NC(=O)[C@H](Cc1cscn1)NC(=O)[C@H](Cc1ccccc1)CS(=O)(=O)N1CCN(C)CC1` , the logged bioavailability turned out to be 23

Noted for `CC(C)C[C@H](O)[C@H](O)[C@H](CC1CCCCC1)NC(=O)[C@H](Cn1cccn1)NC(=O)[C@@H](CC(=O)N(C)CCc1ccccn1)Cc1ccccc1` : its bioavailability reads 20

* * *

target: Renin (Canis lupus familiaris)
protocol: In vitro inhibitory concentration against dog plasma renin at pH 7.4
recordedEndpoint: pIC50
Hey, just a heads up that pIC50 is the negative log base 10 of the concentration in molar.

Looking up `CC(C)C[C@H](O)[C@H](O)[C@H](CC1CCCCC1)NC(=O)[C@H](Cc1cscn1)NC(=O)[C@@H](CC(=O)N(C)CCc1ccccn1)Cc1ccccc1` , I see its pIC50 listed as 7.48

* * *

protocol: Integrated area under the plasma drug level-time curve was determined in systemic circulation after intraduodenal dose of 10 mg/kg in rat
Format: ADME, organism-based
Set-up: dose 10 mg/kg, route intraduodenal
recordedEndpoint: AUC

Here are 2 molecules together with their reported answers.
# molecule, AUC
measured = [
    ("CC(C)C[C@H](O)[C@H](O)[C@H](CC1CCCCC1)NC(=O)[C@H](Cn1cccn1)NC(=O)[C@@H](CC(=O)N(C)CCc1ccccn1)Cc1ccccc1", "0.76 µg·h/mL"),
    ("CC(C)C[C@H](O)[C@H](O)[C@H](CC1CCCCC1)NC(=O)[C@H](Cc1cscn1)NC(=O)[C@H](Cc1ccccc1)CS(=O)(=O)C1CN(C)C1", "1.3 µg·h/mL"),
]

Next item in the queue.
response.value for CC(C)C[C@H](O)[C@H](O)[C@H](CC1CCCCC1)NC(=O)[C@H](Cc1cscn1)NC(=O)[C@H](Cc1ccccc1)CS(=O)(=O)N1CCN(C)CC1 [ZANKIREN] (field: AUC) = 0.62 µg·h/mL

* * *

Cmax listing for selected compounds.
protocol: Peak concentration was determined in systemic circulation after intraduodenal dose of 10 mg/kg in monkey
Format: ADME, organism-based
Set-up: dose 10 mg/kg, route intraduodenal
settings: simiiformes, in vivo, read-out: Activity
Give the value, in units of ng/mL, as a plain number.

# mol, Cmax / ng/mL
data = [
    ("CC(C)C[C@H](O)[C@H](O)[C@H](CC1CCCCC1)NC(=O)[C@H](Cc1cscn1)NC(=O)[C@H](Cc1ccccc1)CS(=O)(=O)C1CCN(C)CC1", 72),
]

Attention now shifts to the item below.
Reported Cmax ( `CC(C)C[C@H](O)[C@H](O)[C@H](CC1CCCCC1)NC(=O)[C@H](Cc1cscn1)NC(=O)[C@H](Cc1ccccc1)CS(=O)(=O)N1CCN(C)CC1` ) = 130

* * *

protocol: Bioavailability in the systemic circulation after 10 minutes was determined after intraduodenal dose of 10 mg/kg in rat by HPLC method
Format: ADME, organism-based
settings: plasma (systemic circulation), read-out: Plasma level
recordedEndpoint: concentration at 10 min (ng/mL)
The reply should be a number in ng/mL, with the unit left off.

The cases that follow already have their concentration at 10 min on record.
# mol, concentration at 10 min (ng/mL)
measured = [
    ("CC(C)C[C@H](O)[C@H](O)[C@H](CC1CCCCC1)NC(=O)[C@H](Cc1cscn1)NC(=O)[C@@H](CC(=O)N(C)CCCN(C)C)Cc1ccccc1", 93),
    ("COCCN(C)C(=O)C[C@@H](Cc1ccccc1)C(=O)N[C@@H](Cc1cscn1)C(=O)N[C@@H](CC1CCCCC1)[C@@H](O)[C@@H](O)CC(C)C", 33),
]

Given item `COCCOCOCCN(C)C(=O)C[C@@H](Cc1ccccc1)C(=O)N[C@@H](Cc1c[nH]cn1)C(=O)N[C@@H](CC1CCCCC1)[C@@H](O)[C@@H](O)CC(C)C` , the value recorded as its concentration at 10 min is 68

Summary for this molecule, `CC(C)C[C@H](O)[C@H](O)[C@H](CC1CCCCC1)NC(=O)[C@H](Cc1cscn1)NC(=O)[C@H](Cc1ccccc1)CS(=O)(=O)C1CN(C)C1` : concentration at 10 min is 510

The molecule identified as `CC(C)C[C@H](O)[C@H](O)[C@H](CC1CCCCC1)NC(=O)[C@H](Cc1cscn1)NC(=O)[C@@H](CC(=O)N(C)CCn1cccn1)Cc1ccccc1` registered its concentration at 10 min at 140

For this molecule ( `CC(C)C[C@H](O)[C@H](O)[C@H](CC1CCCCC1)NC(=O)[C@H](Cn1cccn1)NC(=O)[C@@H](CC(=O)N(C)CCc1ccccn1)Cc1ccccc1` ), measured concentration at 10 min is 220

The molecule identified as `CC(C)C[C@H](O)[C@H](O)[C@H](CC1CCCCC1)NC(=O)[C@H](Cc1cscn1)NC(=O)[C@@H](CC(=O)N(C)CCn1ccnc1)Cc1ccccc1` registered its concentration at 10 min at 57

* * *

protocol: Bioavailability in the portal circulation after 10 minutes was determined after intraduodenal dose of 10 mg/kg in rat by renin inhibition assay
Format: ADME, organism-based
settings: plasma (portal circulation), read-out: Plasma level
recordedEndpoint: concentration at 10 min
Just the number plus its unit, please.

Below: 4 compounds and their reported concentration at 10 min.
# mol, concentration at 10 min
records = [
    ("CC(C)C[C@H](O)[C@H](O)[C@H](CC1CCCCC1)NC(=O)[C@H](Cc1cscn1)NC(=O)[C@@H](CC(=O)N(C)CCN1CCN(C)CC1)Cc1ccccc1", "580 ng/mL"),
    ("CC(C)C[C@H](O)[C@H](O)[C@H](CC1CCCCC1)NC(=O)[C@H](Cc1cscn1)NC(=O)[C@@H](CC(=O)N(C)CCN(C)C)Cc1ccccc1", "1600 ng/mL"),
    ("CC(C)C[C@H](O)[C@H](O)[C@H](CC1CCCCC1)NC(=O)[C@H](Cc1cscn1)NC(=O)[C@H](Cc1ccccc1)CS(=O)(=O)C(C)(C)C", "830 ng/mL"),
    ("CC(C)C[C@H](O)[C@H](O)[C@H](CC1CCCCC1)NC(=O)[C@H](Cc1cscn1)NC(=O)[C@@H](CC(=O)N(C)CCc1ccccn1)Cc1ccccc1", "550 ng/mL"),
]

compound `COCCOCOCCN(C)C(=O)C[C@@H](Cc1ccccc1)C(=O)N[C@@H](Cc1cscn1)C(=O)N[C@@H](CC1CCCCC1)[C@@H](O)[C@@H](O)CC(C)C` , concentration at 10 min observed: 3100 ng/mL

The reported measurements were obtained from ChEMBL document CHEMBL1126595.
